Collected half-life at 1 μM values appear next to each entry.
experiment: Metabolic stability with human liver microsomes; type: in vitro ADME; conditions: human, microsomes, pH 7.6

Here are 4 compounds together with their reported answers.
1. CCS(=O)(=O)c1cc(C#N)ccc1C1NC(=O)N(c2cccc(C(F)(F)F)c2)C2=C1C(=O)CC2 (stereo not drawn)    > 2.17 h
2. CNC(=O)N1C(=O)N(c2cccc(C(F)F)c2)C2=C(C(=O)CC2)C1c1ccc(C#N)cc1 (stereo not drawn)    > 2.17 h
3. N#CCN1C(=O)N(c2cccc(C(F)(F)F)c2)C2=C(C(=O)CC2)C1c1ccc(C#N)cc1 (stereo not drawn)    > 2.17 h
4. CCNC(=O)N1C(=O)N(c2cccc(C(F)F)c2)C2=C(C(=O)CC2)C1c1ccc(C#N)cc1 (stereo not drawn)    > 2.17 h

Turning now to a further compound:
(Q) Answer with the recorded half-life at 1 μM for the compound listed here: CNC(=O)N1C(=O)N(c2cccc(C(F)(F)F)c2)C2=C(C(=O)CC2)C1c1ccc(C#N)cc1OC (stereo not drawn)
(A) > 2.17 h

====

test: Drug transport across human Caco-2 cells; type: in vitro ADME; details: human, Caco-2, pH 7.2, Caco-2 monolayers, apical-to-basal, pH 7.2, 37° C.; read-out: PEAB
measuredEndpoint: Papp A→B at 10 µM (×10⁻⁶ cm/s)

Here are 5 compounds together with their reported answers.
1) CCNC(=O)N1C(=O)N(c2cccc(C(F)F)c2)C2=C(C(=O)CC2)C1c1ccc(C#N)cc1 (stereo not shown)    70.8
2) CCS(=O)(=O)N1C(=O)N(c2cccc(C(F)(F)F)c2)C2=C(C(=O)CC2)C1c1ccc(C#N)cc1 (stereo not shown)    56.9
3) CC(C)NC(=O)N1C(=O)N(c2cccc(C(F)(F)F)c2)C2=C(C(=O)CC2)[C@H]1c1ccc(C#N)cc1S(C)(=O)=O    19.2
4) N#Cc1ccc([C@@H]2C3=C(CCC3=O)N(c3cccc(C(F)(F)F)c3)C(=O)N2C(=O)N[C@H]2CCC[C@@H]2O)cc1    38.1
5) CS(=O)(=O)c1cc(C#N)ccc1[C@H]1NC(=O)N(c2cccc(C(F)F)c2)C2=C1C(=O)CC2    3

a. CS(=O)(=O)N1C(=O)N(c2cccc(C(F)(F)F)c2)C2=C(C(=O)CC2)[C@H]1c1ccc(C#N)cc1
b. CC(C)(O)CNC(=O)N1C(=O)N(c2cccc(C(F)(F)F)c2)C2=C(C(=O)CC2)[C@H]1c1ccc(C#N)cc1 [Example 41A]
(Q) Between a and b , whose recorded Papp A→B at 10 µM is greater? Answer by quoting the chosen item's label.
(A) a
(a: 43.9 ×10⁻⁶ cm/s, b: 11.1 ×10⁻⁶ cm/s)

====

assay: Aqueous solubility; format: physicochemical; details: McIlvaine buffer pH 6.8 with 2.5% DMSO, pH 6.8, aqueous buffer, kinetic from dmso stock, McIlvaine buffer pH 6.8, 2.5% DMSO, 24 h shaking
measuredEndpoint: solubility at 24 h (µg/mL)

1. CCS(=O)(=O)c1cc(C#N)ccc1[C@H]1NC(=O)N(c2cccc(C(F)(F)F)c2)C2=C1C(=O)CC2 [Example 14A]    62
2. CN1C(=O)N(c2cccc(C(F)(F)F)c2)C2=C(C(=O)CC2)[C@H]1c1ccc(C#N)cc1S(C)(=O)=O [Example 25]    62
3. CN1C(=O)N(c2cccc(C(F)(F)F)c2)C2=C(C(=O)CC2)C1c1ccc(C#N)cc1[S+](C)[O-] (single isomer, unassigned) [Example 30B]    65
4. N#Cc1ccc([C@@H]2C3=C(CCC3=O)N(c3cccc(C(F)(F)F)c3)C(=O)N2C(=O)NCCO)cc1 [Example 7.2A]    72
5. N#Cc1ccc(C2C3=C(CCC3=O)N(c3cccc(C(F)(F)F)c3)C(=O)N2C(=O)N[C@@H]2CCC[C@H]2O)cc1 (stereo partly shown) [Example 42.3]    20
6. N#Cc1ccc([C@@H]2C3=C(CCC3=O)N(c3cccc(C(F)(F)F)c3)C(=O)N2C(=O)N[C@H]2COC[C@@H]2O)cc1 [Example 45.5]    56
7. CS(=O)(=O)c1cc(C#N)ccc1C1NC(=O)N(c2cccc(C(F)F)c2)C2=C1C(=O)CC2 (stereo not shown) [Example 15.4]    69
8. CN(CCO)C(=O)CN1C(=O)N(c2cccc(C(F)(F)F)c2)C2=C(C(=O)CC2)C1c1ccc(C#N)cc1S(C)(=O)=O (stereo not shown) [Example 21]    87

a. CS(=O)(=O)c1cc(C#N)ccc1C1NC(=O)N(c2ccnc(C(F)(F)F)c2)C2=C1C(=O)CC2 (stereo not shown) [Example 15.6]
b. CNC(=O)N1C(=O)N(c2cccc(C(F)(F)F)c2)C2=C(C(=O)CC2)[C@H]1c1ccc(C#N)cc1 [Example 7.1A]
c. CN1C(=O)N(c2cccc(C(F)(F)F)c2)C2=C(C(=O)CC2)C1c1ccc(C#N)cn1 (stereo not shown) [Example 26.1]
(Q) Rank ascending by solubility at 24 h. Your task in answering is to list the labels in the requested order.
(A) b, c, a
(b: 23 µg/mL, c: 41 µg/mL, a: 76 µg/mL)

I. N#CCN1C(=O)N(c2cccc(C(F)(F)F)c2)C2=C(C(=O)CC2)C1c1ccc(C#N)cc1 (stereo not shown) [Example 22]
II. CS(=O)(=O)c1cc(C#N)ccc1[C@@H]1C2=C(CCC2=O)N(c2cccc(C(F)(F)F)c2)C(=O)N1C(=O)NC1CC1 [Example 47.4]
(Q) Looking at recorded values for solubility at 24 h, does I or II come in lower? Answer by quoting the chosen item's label.
(A) I

P. N#Cc1ccc([C@H]2NC(=O)N(c3cccc(C(F)(F)F)c3)C3=C2C(=O)CC3)cc1 [Example 1A]
Q. CS(=O)(=O)CCNC(=O)N1C(=O)N(c2cccc(C(F)(F)F)c2)C2=C(C(=O)CC2)C1c1ccc(C#N)cc1F (stereo not shown) [Example 49.3]
R. CC(C)NC(=O)N1C(=O)N(c2cccc(C(F)F)c2)C2=C(C(=O)CC2)C1c1ccc(C#N)cc1S(C)(=O)=O (stereo not shown) [Example 53.4]
(Q) Rank descending by solubility at 24 h. Your task in answering is to list the labels in the requested order.
(A) P, Q, R
(P: 74 µg/mL, Q: 32 µg/mL, R: 14 µg/mL)
